// data source = the supplement of paper PMC10065799

# System: AncSZ;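 also: 11-residue human phosphosite peptides and single-mutation variants displayed on the E. coli surface, counted by deep sequencing, each peptide's frequency after selection divided by its frequency in the unselected input library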;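 also: frequency after pTyr selection over input frequency; kinase dosed for 20-30% of maximal phosphorylation in three min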
# protocol text: phosphorylation enrichment, bacterial display (enrichment ratio); higher = better substrate or ligand; peptides without Tyr show the background
Rule: phosphorylation enrichment of 1 or more gives t; anything lower gives f.

phosphorylation enrichment >= 1 for KWHREYNSKYV [RICTOR_Y835] ?
f

phosphorylation enrichment >= 1 for PDMHSYMVRYN [GRIN2D_Y732] ?
f

phosphorylation enrichment >= 1 for HEKRAYICAHP [ACAD9_Y611_L606H] ?
f

phosphorylation enrichment >= 1 for VPLATYMQIYK [RPL21_Y30_R32Q] ?
f

phosphorylation enrichment >= 1 for ISHVAYLVLGK [TRRAP_Y892_R893L] ?
f

phosphorylation enrichment >= 1 for TVETKYDNISR [SETDB2_Y477] ?
f

phosphorylation enrichment >= 1 for LNCIFYKDQTG [RS1_Y166_W163C_YF] ?
t

phosphorylation enrichment >= 1 for QEIATYRRQLE [KRT14_Y415_L418Q] ?
t

phosphorylation enrichment >= 1 for DLNATYCTIQG [U2SURP_Y634_R635C] ?
t

phosphorylation enrichment >= 1 for EDGRLYAVKRS [PKMYT1_Y136] ?
f

phosphorylation enrichment >= 1 for RMLREYQELMS [KRT74_Y425] ?
f

phosphorylation enrichment >= 1 for RRKRAYVEIEF [MAK16_Y282_Q277R_YF] ?
f

phosphorylation enrichment >= 1 for QKMADYSNKLF [PDPR_Y104_YF] ?
t

phosphorylation enrichment >= 1 for AVISVYDLVVV [PSEN1_Y256_A260V] ?
t

phosphorylation enrichment >= 1 for YGMQLYQNYMH [GRB14_Y347] ?
t

phosphorylation enrichment >= 1 for SVTCTNSPALN [TP53_Y126_Y126N] ?
f

phosphorylation enrichment >= 1 for TMETKYDNISR [SETDB2_Y477_V473M] ?
f

phosphorylation enrichment >= 1 for RMSQRYRDVLQ [CYP1A2_Y72_G73R] ?
t

phosphorylation enrichment >= 1 for RKKLFYKADGE [SERPINC1_Y272_E269K] ?
f

phosphorylation enrichment >= 1 for ISKTWYSAEQF [CD207_Y217_P213S] ?
f

phosphorylation enrichment >= 1 for PLDGEHFTLQI [TP53_Y327_Y327H] ?
t

phosphorylation enrichment >= 1 for QITQVYGFFHE [PPP2CA_Y127_D131H_YF] ?
t

phosphorylation enrichment >= 1 for TEAEPYFRSLR [NPHS1_Y1138_YF] ?
f

phosphorylation enrichment >= 1 for NTGDFYDLFGG [PTPN11_Y63_YF] ?
t

phosphorylation enrichment >= 1 for MSGDVYSTDYY [NTRK2_Y702_R699G] ?
t

phosphorylation enrichment >= 1 for RENGPYYTSYP [GDAP2_Y487] ?
t

phosphorylation enrichment >= 1 for YYLGKYLQEVL [KLB_Y910] ?
t

phosphorylation enrichment >= 1 for DQNVEYKGTVW [FHL1_Y117] ?
f
